The reported measurements were obtained from patent US3947411A.

System: Staphylococcus aureus
Experiment: Agar well inhibition zone test against bacteria, Staphylococcus aureus (Table III)
Settings: quantity per well giving inhibition zone (500, 50, 5 μg tested); nutrient agar, 37°, 24 hours
Reported metric: Inhibition Area at μg, Staph. aureus
# output: numeric value plus its unit

Hey, quick one: what's Inhibition Area at μg, Staph. aureus for each of these?
1. CC(N1CCN(CCN2CCN(CCc3ccccc3)CC2)CC1)C(O)(Cc1ccccc1)Cc1ccccc1 (centres unmarked)
2. CC1CCCN(CCN2CCN(C(C)C(=Cc3ccccc3)Cc3ccccc3)CC2)C1 (centres unmarked)
3. CC1CCCN(CCN2CCN(C(C)C(O)(Cc3ccccc3)Cc3ccccc3)CC2)C1 (centres unmarked)

OUT:
["50 µg", "50 µg", "50 µg"]

Report Inhibition Area at μg, Staph. aureus for each item below.
1. CC1CCN(CCN2CCN(C(C)C(=Cc3ccccc3)Cc3ccccc3)CC2)CC1 (centres unmarked)
2. CNCCN1CCN(C(C)C(=Cc2ccccc2)Cc2ccccc2)CC1 (centres unmarked)

OUT:
["50 µg", "5 µg"]
